Inhibition (%) by entry:
# test.system: PNB esterase (Bacillus subtilis)
# Construct: A culture of Bacillus subtilis NRRL B-8079 was harvested and frozen by conventional methods; made in house; host or cells: Bacillus subtilis NRRL B-8079 (natural producer; enzyme purified from cell-free extract)
# assay.method.text: PNB esterase activity assay (HPLC, method of Example 1D), effect of inhibitors
# Type: biochemical
readout.name: Inhibition (%)

{"molecule": "CC(=O)[O-].CC(=O)[O-].[Zn+2] [Zn(OCOCH₃)₂]", "test.system": "PNB esterase (Bacillus subtilis)", "meas.value": 97}
{"molecule": "[Cl][Hg][Cl] [HgCl₂]", "test.system": "PNB esterase (Bacillus subtilis)", "meas.value": 100}
{"molecule": "O=C(NC(Cc1ccccc1)C(=O)Nc1ccc2ccccc2c1)c1ccccc1 (stereo not shown) [N-benzoyl phenylalanine naptylamide]", "test.system": "PNB esterase (Bacillus subtilis)", "meas.value": 66}
{"molecule": "O=S(=O)([O-])[O-].[Fe+2] [FeSO4]", "test.system": "PNB esterase (Bacillus subtilis)", "meas.value": 100}

---

# test.system: PNB esterase (Bacillus subtilis, UniProt P37967)
# Construct: A culture of Bacillus subtilis NRRL B-8079 was harvested and frozen by conventional methods; made in house; host or cells: Bacillus subtilis NRRL B-8079 (natural producer; enzyme purified from cell-free extract)
# Sequence (P37967 1-489): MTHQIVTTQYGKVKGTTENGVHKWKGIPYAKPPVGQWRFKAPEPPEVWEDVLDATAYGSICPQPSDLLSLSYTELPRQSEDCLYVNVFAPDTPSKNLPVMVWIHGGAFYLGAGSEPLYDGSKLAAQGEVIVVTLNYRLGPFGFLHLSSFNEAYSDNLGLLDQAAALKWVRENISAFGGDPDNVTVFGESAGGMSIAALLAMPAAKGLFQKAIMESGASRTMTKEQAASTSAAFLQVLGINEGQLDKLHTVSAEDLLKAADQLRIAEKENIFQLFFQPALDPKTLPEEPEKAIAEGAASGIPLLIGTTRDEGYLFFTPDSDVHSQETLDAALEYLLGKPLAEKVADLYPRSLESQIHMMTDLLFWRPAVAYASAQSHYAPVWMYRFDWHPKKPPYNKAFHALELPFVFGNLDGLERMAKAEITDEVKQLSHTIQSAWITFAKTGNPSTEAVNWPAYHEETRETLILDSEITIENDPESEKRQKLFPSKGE
# assay.method.text: PNB esterase activity assay (HPLC, method of Example 1D), effect of inhibitors
# Type: biochemical
readout.name: PNB esterase activity inhibited (in words)

{"molecule": "[Cl][Hg][Cl] [HgCl₂]", "meas.value": "moderately inhibited"}
{"molecule": "O=C(NC(Cc1ccccc1)C(=O)Nc1ccc2ccccc2c1)c1ccccc1 (stereo not drawn) [N-benzoyl phenylalanine naptylamide]", "meas.value": "moderately inhibited"}
{"molecule": "C(=NC1CCCCC1)=NC1CCCCC1 [Dicyclohexyl carbodiimide]", "meas.value": "moderately inhibited"}
{"molecule": "CCOC(=O)OC(=O)OCC [Diethylpyrocarbonate]", "meas.value": "strongly inhibited"}
{"molecule": "O=CC(=O)c1ccccc1 [Phenylglyoxal]", "meas.value": "moderately inhibited"}
{"molecule": "O=S(=O)(F)Cc1ccccc1 [Phenylmethylsulfonylfluoride]", "meas.value": "strongly inhibited"}

---

# test.system: PNB esterase (Bacillus subtilis, UniProt P37967)
# Construct: A culture of Bacillus subtilis NRRL B-8079 was harvested and frozen by conventional methods; made in house; host or cells: Bacillus subtilis NRRL B-8079 (natural producer; enzyme purified from cell-free extract)
# Sequence (P37967 1-489): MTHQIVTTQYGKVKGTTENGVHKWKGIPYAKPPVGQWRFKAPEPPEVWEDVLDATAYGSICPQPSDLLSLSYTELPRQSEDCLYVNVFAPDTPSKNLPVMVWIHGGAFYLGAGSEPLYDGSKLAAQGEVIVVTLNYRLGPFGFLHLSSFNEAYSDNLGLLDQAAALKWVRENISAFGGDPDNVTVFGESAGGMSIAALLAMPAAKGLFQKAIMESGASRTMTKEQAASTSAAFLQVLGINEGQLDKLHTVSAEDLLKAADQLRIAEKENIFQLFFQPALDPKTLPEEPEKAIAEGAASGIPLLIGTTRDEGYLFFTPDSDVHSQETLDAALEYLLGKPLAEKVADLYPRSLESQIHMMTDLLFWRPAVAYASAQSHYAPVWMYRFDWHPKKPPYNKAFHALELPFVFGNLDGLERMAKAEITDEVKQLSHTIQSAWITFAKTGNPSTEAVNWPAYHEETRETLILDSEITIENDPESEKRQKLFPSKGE
# assay.method.text: PNB esterase activity assay (HPLC, method of Example 1D), effect of inhibitors
# Type: biochemical

{"compound": "O=C(O)c1cc(SSc2ccc([N+](=O)[O-])c(C(=O)O)c2)ccc1[N+](=O)[O-]", "inhibition at 1000 µM": "69%"}
{"compound": "O=C(O)CN(CCN(CC(=O)O)CC(=O)O)CC(=O)O", "inhibition at 1000 µM": "0%"}
{"compound": "OCCS", "inhibition at 1000 µM": "0%"}
{"compound": "O=CC(=O)c1ccccc1", "inhibition at 1000 µM": "91%"}
{"compound": "CCOC(=O)OC(=O)OCC [Diethylpyrocarbonate]", "inhibition at 1000 µM": "100%"}
{"compound": "C(=NC1CCCCC1)=NC1CCCCC1 [Dicyclohexyl carbodiimide]", "inhibition at 1000 µM": "78%"}

Measured values drawn from patent EP0549264A1 for this set.
